assay: GT localization in healthy versus 4T1 tumor bearing lung tissue; assay type: in vivo, BALB/c mice; conditions: female, BALB/c, mouse, lung/plasma, intravenous, 1 hour after control (CrEL), Healthy mice; read-out: Lung/Plasma Ratio
Outcome measure: Kp at 1 h

| Cpd smiles | Outcome measure | Data value |
| --- | --- | --- |
| Nc1ccn([C@@H]2O[C@H](CO)[C@@H](O)C2(F)F)c(=O)n1 | Kp at 1 h | 0.9 |
| CC(=O)O[C@H]1C(=O)[C@@]2(C)[C@H]([C@H](OC(=O)c3ccccc3)[C@]3(O)C[C@H](OC(=O)[C@H](O)[C@@H](NC(=O)c4ccccc4)c4ccccc4)C(C)=C1C3(C)C)[C@]1(OC(C)=O)CO[C@@H]1C[C@@H]2O | Kp at 1 h | 3.3 |
